System: Sonic hedgehog protein (Shh)
testName: Sonic hedgehog microarray binding compounds – biochemical, small-molecule microarray, 635/667 nm fluorescence, primary screen (AID 1151);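 note: Shh protein binding to compounds spotted on small-molecule microarray slides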
settings: 635 nm fluorescence, higher = more signal
Dear colleague, classification is by composite z-score, with ranges listed here: range A (below -0.3), range B (-0.3 to below 1), range C (1 or more)

**Q:** Field: class (composite z-score) — entry: "CN(C)CCCC[C@@H]1NC(=O)[C@@H]2C[C@H](C(=O)NCCCCCN)[C@H](c3ccc(O)cc3)N2C1=O"
**A:** range A

**Q:** Field: class (composite z-score) — entry: "O=C(NCc1ccccc1)[C@@H]1c2ccccc2C(=O)N(C2CCCCC2)[C@H]1c1ccc(CO)cc1"
**A:** range C

**Q:** Field: class (composite z-score) — entry: Cc1cc(C)c(C(O)C2C=CC3C(=O)NC(=O)C3N2Nc2ccccn2)c(C)c1 (stereo unspecified)
**A:** range B

**Q:** Field: class (composite z-score) — entry: O=C(NCC(O)CO)[C@@]1(Cc2ccccc2)COC(c2ccc(OCCCO)cc2)=N1 (stereo partly specified)
**A:** range A

**Q:** Field: class (composite z-score) — entry: "CCCC[C@@H]1C[C@H]1[C@@H](NC(=O)c1ccccc1)c1ccccc1"
**A:** range A

**Q:** Field: class (composite z-score) — entry: "NC(=O)NCC#Cc1ccc2c(c1)[C@]1(C(=O)N2)[C@H](c2ccccc2OCCO)N2[C@H](c3ccccc3)[C@H](c3ccccc3)OC(=O)[C@H]2[C@@H]1C(=O)N1CCCCCCC1"
**A:** range C

**Q:** Field: class (composite z-score) — entry: "COC(=O)[C@@]1(Cc2ccc(F)cc2)[C@H]2c3cc(C(=O)N4CCCC4)n(Cc4ccc(Cl)c(C(F)(F)F)c4)c3C[C@H]2CN1C(=O)c1ccccc1"
**A:** range B

**Q:** Field: class (composite z-score) — entry: CCN(CC)c1ccc(N2CC=CC34O[C@@H]5C=CCCOC(=O)C5[C@H]3C(=O)N(CCCO)[C@@H]4C2=O)cc1 (stereo partly specified)
**A:** range B

**Q:** Field: class (composite z-score) — entry: "COCCOC(=O)N1C(=O)[C@@]2(c3cc(C#CC4(O)CCCCCC4)ccc31)[C@H](c1ccc(O)cc1)N1[C@H](c3ccccc3)[C@H](c3ccccc3)OC(=O)[C@H]1[C@@H]2C(=O)N1CCc2cc(OC)c(OC)cc2C1"
**A:** range A

**Q:** Field: class (composite z-score) — entry: "COc1ccc([Si](C)(C)[C@H]2[C@H](CC(=O)N3CCC[C@H]3CO)O[C@@]3(C(=O)N(Cc4cccc(N5CCC5=O)c4)c4ccccc43)[C@@H]2C)cc1"
**A:** range C
